assay: self-splicing fitness, log relative to wild type (ln ratio); higher = more splicing; Tetrahymena group I intron in knt gene, E. coli kanamycin selection, DiMSum; sequences stand for … in CUCUCU…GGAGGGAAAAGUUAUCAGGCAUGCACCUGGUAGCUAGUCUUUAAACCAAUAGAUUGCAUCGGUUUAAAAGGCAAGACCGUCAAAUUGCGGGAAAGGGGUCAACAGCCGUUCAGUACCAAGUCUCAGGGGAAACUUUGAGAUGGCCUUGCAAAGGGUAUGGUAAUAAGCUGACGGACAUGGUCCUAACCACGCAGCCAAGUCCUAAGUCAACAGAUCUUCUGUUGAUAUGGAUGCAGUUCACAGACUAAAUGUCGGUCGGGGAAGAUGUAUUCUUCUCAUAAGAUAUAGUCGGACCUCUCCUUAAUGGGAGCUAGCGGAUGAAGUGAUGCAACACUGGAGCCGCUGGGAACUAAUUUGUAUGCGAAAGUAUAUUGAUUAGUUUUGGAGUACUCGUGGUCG; settings: 37 °C;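 also: selection with 25 µg/mL kanamycin versus none on LB agar overnight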
Criterion: self-splicing fitness (ln) meeting or surpassing -1. Met: YES. Not met: NO.

A selection of reference data follows.
{"BIOPOLYMER SEQUENCE": "AUAGAGCAAUAUUACGCUCA", "CLASSIFICATION": "YES"}
{"BIOPOLYMER SEQUENCE": "AUGAAGCAAUAUUACGGCAA", "CLASSIFICATION": "YES"}
{"BIOPOLYMER SEQUENCE": "UCCAAGCAAUAUUACGUCAC", "CLASSIFICATION": "NO"}

Ask: Tell me whether self-splicing fitness (ln) is at least -1 here: `AAUUAGCAAUAUUACGUCGG`
Reply: NO

Ask: Tell me whether self-splicing fitness (ln) is at least -1 here: `UGGUAGCAAUAUUACGGAGA`
Reply: NO

Ask: Tell me whether self-splicing fitness (ln) is at least -1 here: `AAGCAGCAAUAUUACGAUUC`
Reply: YES

Ask: Tell me whether self-splicing fitness (ln) is at least -1 here: `AGGAAGCAAUAUUACGUCUC`
Reply: NO

Ask: Tell me whether self-splicing fitness (ln) is at least -1 here: `AAGAAGCAAUAUUACGAGUU`
Reply: YES

Ask: Tell me whether self-splicing fitness (ln) is at least -1 here: `AUCAAGCAAUAUUACGAUCC`
Reply: YES

====

experiment: self-splicing fitness, log relative to wild type (ln ratio); higher = more splicing; Tetrahymena group I intron in knt gene, E. coli kanamycin selection, DiMSum; sequences stand for … in CUCUCU…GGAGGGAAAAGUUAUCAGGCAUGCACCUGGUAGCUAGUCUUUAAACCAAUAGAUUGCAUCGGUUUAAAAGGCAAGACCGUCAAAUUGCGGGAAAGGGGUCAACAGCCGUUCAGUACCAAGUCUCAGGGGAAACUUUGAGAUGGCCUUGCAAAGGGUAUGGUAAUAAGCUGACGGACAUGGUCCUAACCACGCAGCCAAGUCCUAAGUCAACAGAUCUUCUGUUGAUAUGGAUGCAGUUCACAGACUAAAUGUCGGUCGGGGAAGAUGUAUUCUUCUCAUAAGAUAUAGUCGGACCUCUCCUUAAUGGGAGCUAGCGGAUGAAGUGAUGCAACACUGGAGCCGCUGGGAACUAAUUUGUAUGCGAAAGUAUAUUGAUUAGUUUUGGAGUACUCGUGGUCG; conditions: 37 °C
Would you mind telling me the reported self-splicing fitness (ln) of each entry?
One number for each entry.

Need self-splicing fitness (ln) for each of these sequences.
1. GCGUAGCAAUAUUACGAAUA
2. UCCAAGCAAUAUUACGGCUA
3. GCGCAGCAAUAUUACGUCAG
4. UCUGAGCAAUAUUACGGAGC
5. AGUCAGCAAUAUUACGGCCC
6. GCAAAGCAAUAUUACGCGGA
7. AACUAGCAAUAUUACGACAA

Reply:
-1.13
-0.476
-2.23
-2.92
-0.0813
-1.94
-0.603

Need self-splicing fitness (ln) for each of these sequences.
1. ACGAAGCAAUAUUACGUUUA
2. CUCCAGCAAUAUUACGGAUC
3. AGUAAGCAAUAUUACGUGCC
4. UCUAAGCAAUAUUACGAUUA
5. AACCAGCAAUAUUACGAGAC

Reply:
1: -0.875; 2: -1.47; 3: -0.612; 4: -1.94; 5: -1.71

Need self-splicing fitness (ln) for each of these sequences.
1. AAACAGCAAUAUUACGAUUA
2. GACUAGCAAUAUUACGUCUA

Reply:
1. -0.343
2. -0.852

Need self-splicing fitness (ln) for each of these sequences.
1. UACCAGCAAUAUUACGAGGA
2. UGCCAGCAAUAUUACGCUUA

Reply:
-1.24
0.791
